# Measured Target: mutant Hex A (Homo sapiens, UniProt P06865+P07686)
# Measurement Conditions: Hex A rescue, determined from graphs of FIGS. 5-7
Rule for this label: 1 means EC50 is less than 5 µM; 0 means EC50 is at least 5 µM.

Previously resolved entries follow.
Compound: CCc1nc(N)nc(N)c1-c1ccc(F)cc1
Measured Target: mutant Hex A (Homo sapiens, UniProt P06865+P07686)
Category Label: 0
--
Compound: CCc1nc(N)nc(N)c1-c1ccc(C)cc1 [ksh3-19b]
Measured Target: mutant Hex A (Homo sapiens, UniProt P06865+P07686)
Category Label: 1
--
Compound: CCCc1nc(N)nc(N)c1-c1ccccc1
Measured Target: mutant Hex A (Homo sapiens, UniProt P06865+P07686)
Category Label: 0
--
Compound: CCc1nc(N)nc(N)c1-c1cc(C)cc(C)c1 [ksh3-19e]
Measured Target: mutant Hex A (Homo sapiens, UniProt P06865+P07686)
Category Label: 0
--
Compound: CCc1nc(N)nc(N)c1-c1ccc(C(F)(F)F)cc1 [vsa5]
Measured Target: mutant Hex A (Homo sapiens, UniProt P06865+P07686)
Category Label: 1
--
Compound: CCCc1nc(N)nc(N)c1-c1ccc(Cl)cc1
Measured Target: mutant Hex A (Homo sapiens, UniProt P06865+P07686)
Category Label: 0

Okay, next one:
Please indicate whether the reported EC50 of `CCCc1nc(N)nc(N)c1-c1ccc(C)cc1` is strictly below 5 µM. 1
